- target.entity: Leukotriene B4 receptor (Homo sapiens, UniProt Q9NPC1+Q15722)
- measurement.protocol: Inhibition of [3H]LTB4 receptor binding in human neutrophils
- Type: protein assay
Field: IC50. Provide a value for each of the compounds that follow.
One number for each entry, in nM.

In [3]: df
Out[3]:
                           structure_smiles                             target_entity  value_observed
0  CCc1cc(-c2ccc(N(C)C)cc2)c(O)cc1OCCCCCC(C)(C)c1nn[n-]n1.[Na+]  Leukotriene B4 receptor (Homo sapiens, UniProt Q9NPC1+Q15722)            15.8
1  CCc1cc(-c2cccc(C(F)(F)F)c2)c(O)cc1OCCCCCC(C)(C)c1nn[n-]n1.[Na+]  Leukotriene B4 receptor (Homo sapiens, UniProt Q9NPC1+Q15722)            33.2
2  CCc1cc(-c2ccccn2)c(O)cc1OCCCCCC(C)(C)c1nn[n-]n1.[Na+]  Leukotriene B4 receptor (Homo sapiens, UniProt Q9NPC1+Q15722)             453

// next item, IC50 requested
IC50 recorded for this compound, CCCc1cc(CC)c(OCCCCCC(C)(C)c2nn[n-]n2)cc1O.[Na+] , is 9.3

###

Field: Ki. Provide a value for each of the molecules that follow.
- target.entity: Leukotriene B4 receptor (Cavia porcellus)
- measurement.protocol: Inhibition of [3H]LTB4 receptor binding in guinea pig lung membrane
Give bare numbers, in nM.

                           structure_smiles  value_observed
0  CCc1cc(-c2ccccn2)c(O)cc1OCCCCCC(C)(C)c1nn[n-]n1.[Na+]             196
1  CCc1cc(-c2ccc(N(C)C)cc2)c(O)cc1OCCCCCC(C)(C)c1nn[n-]n1.[Na+]            85.9
2  CCCc1cc(CC)c(OCCCCCC(C)(C)c2nn[n-]n2)cc1O.[Na+]            14.2

// next item, Ki requested
Ki recorded for this molecule, CCc1cc(-c2cccc(C(F)(F)F)c2)c(O)cc1OCCCCCC(C)(C)c1nn[n-]n1.[Na+] , is 76.9
